# test_system: aggregated Aβ (Homo sapiens, UniProt P05067)
# Construct: aggregated Aβ peptide Aβ1-140 in solution
# Sequence (P05067 672-711 limits assumed): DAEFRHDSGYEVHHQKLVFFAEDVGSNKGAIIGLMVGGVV
# experimental_protocol: Thioflavine T displacement from aggregated Aβ
# reported_conditions: thioflavine concentrations 0.37 μM-3 μM; fluorescence 460-560 nm, excitation 445 nm; read-out: apparent binding constants
quantity: Kd

Data point: CN1CCOc2cc3c(cc21)Oc1cc2c(cc1=N3)OCC[N+]=2C.F[B-](F)(F)F [Ex. 3] ; Kd = 100 to 200 nM

Values were extracted from patent US20070031336A1.
